Answer each item with its documented % Inhibition, ratio FXIIa-alpha:Antibody 1:1.
- experimental system: T1, human Factor XIIa-alpha (human, UniProt P00748 20-615)
- T1 sequence: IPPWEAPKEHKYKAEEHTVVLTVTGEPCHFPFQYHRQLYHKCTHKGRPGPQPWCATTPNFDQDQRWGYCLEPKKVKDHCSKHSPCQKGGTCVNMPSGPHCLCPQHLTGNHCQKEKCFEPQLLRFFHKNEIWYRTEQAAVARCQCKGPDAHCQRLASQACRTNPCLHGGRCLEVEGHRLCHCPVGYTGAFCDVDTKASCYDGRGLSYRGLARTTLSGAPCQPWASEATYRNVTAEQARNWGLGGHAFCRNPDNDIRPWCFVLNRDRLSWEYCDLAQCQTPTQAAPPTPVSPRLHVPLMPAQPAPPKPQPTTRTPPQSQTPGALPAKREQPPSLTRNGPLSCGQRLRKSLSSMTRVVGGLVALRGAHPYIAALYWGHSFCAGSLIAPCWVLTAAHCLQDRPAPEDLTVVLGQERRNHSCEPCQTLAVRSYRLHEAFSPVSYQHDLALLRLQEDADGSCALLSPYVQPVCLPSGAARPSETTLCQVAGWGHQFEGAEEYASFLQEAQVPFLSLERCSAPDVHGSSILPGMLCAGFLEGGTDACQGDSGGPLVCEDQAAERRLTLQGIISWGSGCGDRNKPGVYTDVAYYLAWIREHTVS
- procedure summary: cell-based or functional assay
Numbers only; they are read as %.

*Q* Quick one: % Inhibition, ratio FXIIa-alpha:Antibody 1:1 of VR24 (antibody, V domains shown) VH: EVQLLESGGGLVQPGGSLRLSCAASGFTFSKYIMQWVRQAPGKGLEWVSGIRPSGGTTVYADSVKGRFTISRDNSKNTLYLQMNSLRAEDTAVYYCARALPRSGYLISPHYYYYALDVWGQGTTVTVSS VL: QSVLTQPPSASGTPGQRVTISCSGSSEMTVHHYVYWYQQLPGTAPKLLIYSNNQRPSGVPDRFSGSKSGTSASLAISGLRSEDEADYYCAAWDASLRGVFGGGTKLTVLG ?
*A* 100

*Q* Would you kindly repeat that for VR110 (antibody, V domains shown) VH: EVQLLESGGGLVQPGGSLRLSCAASGFTFSKYIMQWVRQAPGKGLEWVSGIDMPTKGTVYADSVKGRFTISRDNSKNTLYLQMNSLRAEDTAVYYCARALPRSGYLISPHYYYYALDVWGQGTTVTVSS VL: QSELTQPPSASGTPGQRVTISCSGSSSNIGRNYVYWYQQVPGTAPKLLIYSNNQRPSGVPDRFSGSKSGTSASLVISGLRSEDEADYYCAAWDASLRGVFGGGTKLTVLG ?
*A* 100

*Q* Would you kindly repeat that for VR112 (antibody, V domains shown) VH: EVQLLESGGGLVQPGGSLRLSCAASGFTFSKYIMQWVRQAPGKGLEWVSGINVPVQGTVYADSVKGRFTISRDNSKNTLYLQMNSLRAEDTAVYYCARALPRSGYLISPHYYYYALDVWGQGTTVTVSS VL: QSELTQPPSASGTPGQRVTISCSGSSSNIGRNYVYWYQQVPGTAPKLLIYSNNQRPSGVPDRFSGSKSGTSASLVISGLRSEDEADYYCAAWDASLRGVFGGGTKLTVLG ?
*A* 100
